Reference source: ChEMBL document CHEMBL1944511

Test system: MCF7
assayComment: Growth inhibition of human MCF7 cells at 30 uM after 48 hrs by sulpharhodamine B assay
Type: functional
conditions: MCF7, 48 h, read-out: GI
experimentalReadout: inhibition of growth at 30 µM (%)
One number for each entry, in %.

// worked examples, inhibition of growth at 30 µM included
molecule: C=C[C@@](C)(/C=C/c1ccc(OC)cc1)CCC=C(C)C
experimentalReadout: inhibition of growth at 30 µM
measuredValue: 37
//
molecule: CC(C)=CCC[C@@](C)(/C=C/c1ccc(N)cc1)/C=C/c1ccc(O)cc1
experimentalReadout: inhibition of growth at 30 µM
measuredValue: 28
//
molecule: CC1C(C(C)(C)O)CCC1(C)/C=C/c1ccc(O)cc1 (configuration not stated)
experimentalReadout: inhibition of growth at 30 µM
measuredValue: 58

Below is a list of molecules. For each, state its recorded inhibition of growth at 30 µM.
1. COc1ccc(/C=C/[C@](C)(/C=C/c2ccc(O)cc2)CCC=C(C)C)cc1
2. C=C[C@@](C)(/C=C/c1ccc(OC(C)=O)cc1)CCC=C(C)C [ACETYLBAKUCHIOL]
3. C=C[C@@](C)(/C=C/c1ccc(OC(=O)CCCCCCCCC)cc1)CCC=C(C)C
4. C=C[C@@](C)(/C=C/c1ccc(O)cc1)CCC=C(C)C [BAKUCHIOL]

1. 52
2. 56
3. 12
4. 33
